Data provenance: paper PMC9916356

Target: Panx-1 (Mus musculus, UniProt Q9JIP4)
Sequence (Q9JIP4 whole entry): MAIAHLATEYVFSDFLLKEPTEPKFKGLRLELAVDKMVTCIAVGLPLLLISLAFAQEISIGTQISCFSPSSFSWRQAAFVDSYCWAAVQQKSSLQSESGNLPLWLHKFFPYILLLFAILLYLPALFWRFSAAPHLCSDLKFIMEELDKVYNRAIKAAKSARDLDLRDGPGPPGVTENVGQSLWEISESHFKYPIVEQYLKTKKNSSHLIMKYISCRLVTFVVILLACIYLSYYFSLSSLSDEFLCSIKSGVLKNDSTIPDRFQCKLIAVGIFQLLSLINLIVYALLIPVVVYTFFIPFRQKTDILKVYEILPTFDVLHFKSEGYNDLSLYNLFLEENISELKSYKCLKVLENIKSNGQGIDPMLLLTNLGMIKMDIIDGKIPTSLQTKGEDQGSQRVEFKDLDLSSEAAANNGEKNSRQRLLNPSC
Assay: two-electrode voltage clamp, Xenopus laevis oocytes expressing mouse pannexin1
Readout Label: IC50 (µM)
Form entry: value (µM) — number only.

Example entries and their recorded answers appear below.
[
  {
    "Compound": "O=C(O)c1ccc(Cn2cc(C(=O)O)c(=O)c3cc([N+](=O)[O-])ccc32)cc1",
    "Unit Of Measure": "µM",
    "Data Value": 1.5
  },
  {
    "Compound": "O=C(O)c1ccc(Nc2c(C(=O)O)cnc3ccccc23)cc1 [13g]",
    "Unit Of Measure": "µM",
    "Data Value": 15.5
  },
  {
    "Compound": "CCCN(CCC)S(=O)(=O)c1ccc(Nc2c(C(=O)O)cnc3ccccc23)cc1 [13e]",
    "Unit Of Measure": "µM",
    "Data Value": 4.2
  }
]

Shift focus to the following entry.
Entry NS(=O)(=O)c1ccc(Cn2cc(C(=O)O)c(=O)c3cc([N+](=O)[O-])ccc32)cc1 has what IC50?
3
